- Target Or System: Human COX II (Homo sapiens, UniProt P35354)
- Construct: A 2.0 kb fragment containing the coding region of either human or murine COX-I or human or murine COX-II; made in house; host or cells: SF9 insect cells (baculovirus, transfer vector pVL1393)
- Sequence (P35354 18-604): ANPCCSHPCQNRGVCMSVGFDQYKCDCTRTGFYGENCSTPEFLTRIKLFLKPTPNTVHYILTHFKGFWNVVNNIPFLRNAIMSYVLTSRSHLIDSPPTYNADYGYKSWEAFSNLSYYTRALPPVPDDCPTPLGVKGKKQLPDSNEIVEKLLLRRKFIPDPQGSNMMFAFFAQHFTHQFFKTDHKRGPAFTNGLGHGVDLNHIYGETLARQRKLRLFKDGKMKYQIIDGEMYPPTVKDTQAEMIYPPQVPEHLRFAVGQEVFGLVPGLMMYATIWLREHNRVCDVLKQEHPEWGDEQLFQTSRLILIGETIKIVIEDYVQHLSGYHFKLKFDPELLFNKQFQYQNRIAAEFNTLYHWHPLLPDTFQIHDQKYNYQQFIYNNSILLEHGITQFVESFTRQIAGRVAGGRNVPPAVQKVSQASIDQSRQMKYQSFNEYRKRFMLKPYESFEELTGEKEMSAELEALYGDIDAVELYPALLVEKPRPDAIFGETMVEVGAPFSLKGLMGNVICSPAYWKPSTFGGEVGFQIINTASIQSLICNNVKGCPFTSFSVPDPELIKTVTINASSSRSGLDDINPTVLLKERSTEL
- Test: Assay for COX II activity in vitro (PGE2 ELISA, recombinant enzyme)
- Format: biochemical
- Measurement Context: read-out: Human COX II ID50
Outcome Measure: log10(IC50) (log10 of the value in µM)

Smiles Representation: NS(=O)(=O)c1ccc(-n2nc(C(F)(F)F)c(C3CC3)c2-c2ccccc2)cc1
log10(IC50): 1.43
//
Smiles Representation: CN(C)C=NS(=O)(=O)c1ccc(-n2nc(C#N)c(Cl)c2-c2ccc(F)cc2)cc1
log10(IC50): 0.04
//
Smiles Representation: CCOC(=O)C(C#N)=Cc1cc(-c2ccccc2)n(-c2ccc(S(N)(=O)=O)cc2)n1
log10(IC50): -0.52
//
Smiles Representation: NS(=O)(=O)c1ccc(-n2nc(C(F)(F)F)c3c2-c2ccsc2CC3)cc1
log10(IC50): -0.22
//
Smiles Representation: NS(=O)(=O)c1ccc(-n2nc(CCC(=O)O)cc2-c2ccc(F)cc2)cc1
log10(IC50): 0.54
//
Smiles Representation: COc1ccc(-c2cc(C(Cl)Cl)nn2-c2ccc(S(N)(=O)=O)cc2)cc1F
log10(IC50): 0.56
//
Smiles Representation: NS(=O)(=O)c1ccc(-n2nc(C(F)(F)F)c(CO)c2-c2ccccc2)cc1
log10(IC50): 0.83
//
Smiles Representation: NS(=O)(=O)c1ccc(-n2nc(CCCO)cc2-c2ccccc2)cc1
log10(IC50): 0.62
//
Smiles Representation: CN(C)C=NS(=O)(=O)c1ccc(-n2nc(C#N)c(Br)c2-c2ccccc2)cc1
log10(IC50): 0.04

* * *

- Target Or System: Human COX I (Homo sapiens, UniProt P23219)
- Construct: A 2.0 kb fragment containing the coding region of either human or murine COX-I or human or murine COX-II; made in house; host or cells: SF9 insect cells (baculovirus, transfer vector pVL1393)
- Sequence (P23219 24-599): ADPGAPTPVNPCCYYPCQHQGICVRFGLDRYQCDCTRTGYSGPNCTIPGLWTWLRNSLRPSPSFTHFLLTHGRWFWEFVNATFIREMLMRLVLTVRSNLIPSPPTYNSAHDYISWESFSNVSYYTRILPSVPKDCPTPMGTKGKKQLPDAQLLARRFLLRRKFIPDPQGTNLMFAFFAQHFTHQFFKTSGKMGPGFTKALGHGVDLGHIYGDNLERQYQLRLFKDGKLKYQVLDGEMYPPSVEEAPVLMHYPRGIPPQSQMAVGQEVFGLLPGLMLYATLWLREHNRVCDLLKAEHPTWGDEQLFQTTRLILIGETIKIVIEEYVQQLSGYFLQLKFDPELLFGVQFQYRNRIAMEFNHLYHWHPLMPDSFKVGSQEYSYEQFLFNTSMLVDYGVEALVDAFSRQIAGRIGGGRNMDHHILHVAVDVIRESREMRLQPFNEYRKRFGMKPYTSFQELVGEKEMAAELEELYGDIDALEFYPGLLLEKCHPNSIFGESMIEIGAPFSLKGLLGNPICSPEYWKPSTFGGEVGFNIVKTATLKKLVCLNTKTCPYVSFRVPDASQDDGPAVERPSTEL
- Test: Assay for COX I activity in vitro (PGE2 ELISA, recombinant enzyme)
- Assay type: biochemical
- Measurement Context: read-out: Human COX I ID50
Outcome Measure: IC50 (µM)

Compound: COC(=O)c1cc(-c2cc(F)c(OC)c(F)c2)n(-c2ccc(S(N)(=O)=O)cc2)n1 [Example 84]
Qualifier Sign: =
Assay Value: 65.5
//
Compound: NS(=O)(=O)c1ccc(-n2nc(C(F)(F)Cl)cc2-c2ccc(Cl)cc2)cc1 [Example 129]
Qualifier Sign: =
Assay Value: 13.5
//
Compound: Cc1c(C(F)(F)F)nn(-c2ccc(S(N)(=O)=O)cc2)c1-c1ccccc1 [Example 201]
Qualifier Sign: =
Assay Value: 2.2
//
Compound: Cc1ccc2c(c1)CCc1c(C(F)(F)F)nn(-c3ccc(S(N)(=O)=O)cc3)c1-2 [Example 188]
Qualifier Sign: =
Assay Value: 19.8
//
Compound: CCc1c(C(F)(F)F)nn(-c2ccc(S(N)(=O)=O)cc2)c1-c1ccc(OC)c(C)c1 [Example 202]
Qualifier Sign: =
Assay Value: 91
//
Compound: Cc1c(-c2cc(C(F)(F)F)nn2-c2ccc(S(N)(=O)=O)cc2)ccc2c1OCO2 [Example 138]
Qualifier Sign: <
Assay Value: 0.1
//
Compound: COc1ccc(-c2cc(C(Cl)Cl)nn2-c2ccc(S(N)(=O)=O)cc2)cc1F [Example 130]
Qualifier Sign: =
Assay Value: 12.5
//
Compound: NS(=O)(=O)c1ccc(-n2nc(C(F)(F)F)c3c2-c2ccsc2CC3)cc1 [Example 196]
Qualifier Sign: =
Assay Value: 4.1

* * *

Outcome Measure: melting point

Compound: CCc1c(C(F)(F)F)nn(-c2ccc(S(N)(=O)=O)cc2)c1-c1ccc(OC)c(C)c1 [Example 202]
Outcome Measure: melting point
Assay Value: 135 to 136 °C
--
Compound: COc1ccc(-c2cc(C(Cl)Cl)nn2-c2ccc(S(N)(=O)=O)cc2)cc1F [Example 130]
Outcome Measure: melting point
Assay Value: 190 to 193 °C
--
Compound: NC(=O)c1cc(-c2ccc(Cl)cc2)n(-c2ccc(S(N)(=O)=O)cc2)n1 [Example 96]
Outcome Measure: melting point
Assay Value: 108 to 110 °C
--
Compound: NS(=O)(=O)c1ccc(-n2nc(C(F)(F)F)c3c2-c2ccsc2CC3)cc1 [Example 196]
Outcome Measure: melting point
Assay Value: 288 to 290 °C
--
Compound: COC(=O)c1cc(-c2ccc(Cl)cc2)n(-c2ccc(S(N)(=O)=O)cc2)n1 [Example 85]
Outcome Measure: melting point
Assay Value: 227 °C
--
Compound: NS(=O)(=O)c1ccc(-n2nc(C(F)(F)F)c3c2-c2ccccc2CC3)cc1 [Example 187]
Outcome Measure: melting point
Assay Value: 257 to 258 °C

* * *

- Target Or System: Human COX I (Homo sapiens)
- Construct: A 2.0 kb fragment containing the coding region of either human or murine COX-I or human or murine COX-II; made in house; host or cells: SF9 insect cells (baculovirus, transfer vector pVL1393)
- Test: Assay for COX I activity in vitro (PGE2 ELISA, recombinant enzyme)
- Type: biochemical
- Measurement Context: recombinant human COX I, arachidonic acid 10 μM, PGE2 ELISA; read-out: Human COX I ID50
pIC50: −log10 of the molar value.
Outcome Measure: pIC50

Compound: CC(C)Cc1nn(-c2ccc(S(N)(=O)=O)cc2)c(-c2ccccc2)c1Cl [Example 205]
Assay Value: 5.68

* * *

pIC50 listing for selected compounds.
- Target Or System: Human COX II (Homo sapiens, UniProt P35354)
- Construct: A 2.0 kb fragment containing the coding region of either human or murine COX-I or human or murine COX-II; made in house; host or cells: SF9 insect cells (baculovirus, transfer vector pVL1393)
- Sequence (P35354 18-604): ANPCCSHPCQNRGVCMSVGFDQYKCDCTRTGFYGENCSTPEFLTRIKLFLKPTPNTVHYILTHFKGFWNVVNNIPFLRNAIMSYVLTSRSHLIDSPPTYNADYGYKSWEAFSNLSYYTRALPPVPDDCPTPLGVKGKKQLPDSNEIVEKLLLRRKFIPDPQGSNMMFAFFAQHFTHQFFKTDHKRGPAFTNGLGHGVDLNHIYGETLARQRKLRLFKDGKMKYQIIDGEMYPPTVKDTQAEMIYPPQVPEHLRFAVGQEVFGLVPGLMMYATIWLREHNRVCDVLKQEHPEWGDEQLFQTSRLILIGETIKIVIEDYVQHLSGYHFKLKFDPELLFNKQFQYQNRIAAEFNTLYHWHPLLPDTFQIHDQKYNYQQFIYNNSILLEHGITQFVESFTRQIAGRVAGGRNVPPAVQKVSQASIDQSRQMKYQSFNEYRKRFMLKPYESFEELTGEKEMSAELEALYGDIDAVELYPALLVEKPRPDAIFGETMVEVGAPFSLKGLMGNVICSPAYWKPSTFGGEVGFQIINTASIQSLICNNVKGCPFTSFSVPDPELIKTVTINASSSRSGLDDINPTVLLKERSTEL
- Test: Assay for COX II activity in vitro (PGE2 ELISA, recombinant enzyme)
- Type: biochemical
- Measurement Context: read-out: Human COX II ID50
pIC50: −log10 of the molar value.
Outcome Measure: pIC50

Smiles Representation: COc1c(Cl)cc(-c2cc(C(F)(F)F)nn2-c2ccc(S(N)(=O)=O)cc2)cc1Cl
Target Or System: Human COX II (Homo sapiens, UniProt P35354)
Outcome Measure: pIC50
Qualifier Sign: >
Assay Value: 7.00

Smiles Representation: Cc1c(C(F)(F)F)nn(-c2ccc(S(N)(=O)=O)cc2)c1-c1ccccc1
Target Or System: Human COX II (Homo sapiens, UniProt P35354)
Outcome Measure: pIC50
Qualifier Sign: >
Assay Value: 7.00

Smiles Representation: COC(=O)c1cc(-c2ccc(Cl)cc2)n(-c2ccc(S(N)(=O)=O)cc2)n1
Target Or System: Human COX II (Homo sapiens, UniProt P35354)
Outcome Measure: pIC50
Qualifier Sign: =
Assay Value: 4.13

Smiles Representation: CCOC(=O)c1cc(-c2ccc(Cl)cc2)n(-c2ccc(S(N)(=O)=O)cc2)n1
Target Or System: Human COX II (Homo sapiens, UniProt P35354)
Outcome Measure: pIC50
Qualifier Sign: =
Assay Value: 6.30

Origin of measurements: patent US6413960B1
